- experiment.summary: self-splicing fitness, log relative to wild type (ln ratio); higher = more splicing; Tetrahymena group I intron in knt gene, E. coli kanamycin selection, DiMSum; sequences stand for … in CUCUCU…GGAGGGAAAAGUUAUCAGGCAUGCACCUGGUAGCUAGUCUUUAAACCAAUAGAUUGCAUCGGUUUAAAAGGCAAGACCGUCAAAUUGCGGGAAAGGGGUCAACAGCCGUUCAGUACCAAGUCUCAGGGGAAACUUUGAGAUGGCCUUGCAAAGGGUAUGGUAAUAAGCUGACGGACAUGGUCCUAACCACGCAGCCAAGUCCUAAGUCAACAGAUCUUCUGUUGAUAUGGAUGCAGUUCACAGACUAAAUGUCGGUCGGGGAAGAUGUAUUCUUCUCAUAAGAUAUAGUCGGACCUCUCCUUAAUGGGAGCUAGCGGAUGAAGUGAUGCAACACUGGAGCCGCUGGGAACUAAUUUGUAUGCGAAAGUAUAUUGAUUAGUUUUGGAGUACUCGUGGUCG;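 further: selection with 25 µg/mL kanamycin versus none on LB agar overnight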
- assay.context: 30 °C
Class (required): determined from self-splicing fitness (ln); valid ranges are class 1: < -3; class 2: ≥ -3 and < -1; class 3: ≥ -1

Example entries and their recorded answers appear below.
[
  {
    "primary.sequence": "CGUUAGCAAUAUUACGCCAA",
    "class.label": "class 2"
  },
  {
    "primary.sequence": "AGUGAGCAAUAUUACGCACA",
    "class.label": "class 2"
  },
  {
    "primary.sequence": "CGUGAGCAAUAUUACGACAU",
    "class.label": "class 1"
  },
  {
    "primary.sequence": "AGGAAGCAAUAUUACGAUUA",
    "class.label": "class 2"
  }
]

[in] Please let me know in which category the item ACUCAGCAAUAUUACGUUUU belongs.
[out] class 2

[in] Repeat with UCUCAGCAAUAUUACGUCUC
[out] class 1

All values here come from the supplement of paper PMC7877785.
